Test system: RXF 393 renal
Test: NCI-60 one-dose screen, 48 h
Settings: 10 µM
Compounds without any hit were thinned out: in the full panel of roughly 83,000, 20% have a hit. Calls of active or inactive are those of the source. How the source made its calls: active means growth percent below 10; inactive means the rest.
Classes used: True = active, False = inactive

INSERT INTO results (compound, system_tested, assigned_category) VALUES
  ('NC(=O)c1ccc(Br)o1', 'RXF 393 renal', 'False'),
  ('COc1cc(OC)cc(N2CCN(C(=O)Nc3nc4cc(F)ccc4nc3OC)CC2)c1', 'RXF 393 renal', 'False'),
  ('COc1ccc(NC(=O)CCn2cnc3c(cc(-c4ccccc4)n3-c3ccccc3)c2=O)cc1', 'RXF 393 renal', 'False'),
  ('COc1ccc(N2CCN(c3nc(-c4ccccc4)c(C#N)c(=O)[nH]3)CC2)cc1', 'RXF 393 renal', 'False'),
  ('Fc1ccc(-c2cc(C(Cl)Cl)no2)cc1', 'RXF 393 renal', 'False'),
  ('CC(=O)Nc1ccc(Sc2ccc(NC(C)=O)cc2)cc1', 'RXF 393 renal', 'False'),
  ('CCCCn1c(=O)[nH]c(N)c(C(c2ccc(Cl)cc2)c2c(N)[nH]c(=O)n(CCCC)c2=O)c1=O', 'RXF 393 renal', 'False'),
  ('Cc1cc(C)c(C(=O)OC(C)CNC2CCCCC2)c(C)c1 (configuration not stated)', 'RXF 393 renal', 'False'),
  ('COc1cccc2c1C(=O)c1c(O)c3c(c(O)c1C2=O)C[C@@](O)(C(=O)COC(=O)c1ccccc1)C[C@@H]3OC1CC(N)C(O)C(C)O1 (some centres not stated)', 'RXF 393 renal', 'True'),
  ('Oc1ccc(Cn2cc3c(c2-c2ccccc2)CCc2cnoc2-3)cc1', 'RXF 393 renal', 'False'),
  ('CCCCCCCOc1cccc(/C=C2/C(=O)N=C3SCCCN32)c1', 'RXF 393 renal', 'False'),
  ('CCCCCCCC/C=C/CCCCCCCCC1=NCCN1CCO', 'RXF 393 renal', 'False'),
  ('CC(C)/C(=N/O)c1ccccc1', 'RXF 393 renal', 'False'),
  ('COc1ccc(OC)c([N+](=O)[O-])c1C=O', 'RXF 393 renal', 'False'),
  ('COc1ccc(-c2n/c(=C\c3c(O)[nH]c4ccccc34)cc3c2=Nc2ccccc2-3)cc1', 'RXF 393 renal', 'False'),
  ('O=C(Nc1ccc(Oc2ccc(Nc3nc4ccccc4s3)cc2)cc1)Nc1ccc(Cl)c(Cl)c1', 'RXF 393 renal', 'False'),
  ('COc1cccc(C(=O)N(c2ccc(F)c(F)c2)C(C(=O)NC(C)(C)C)c2cc3c(C)cc(C)cc3nc2Cl)c1 (configuration not stated)', 'RXF 393 renal', 'False');

====

Test system: T-47D breast
Test: NCI-60 one-dose screen, 48 h (100 = growth as untreated, 0 = no growth, -100 = all killed)
Conditions: 10 µM
The panel holds about 83,000 compounds, 20% with a hit somewhere; the sample as a whole holds those more often.
RECORDED ENDPOINT: growth (%)

INSERT INTO measurements (compound, readout_value) VALUES
  ('COc1nc2c(c(=O)[nH]1)C(c1ccc(Oc3ccnc4cc(Cl)ccc34)c(OC)c1)C=C(c1cc(OC)c(OC)c(OC)c1)N2 (centres undefined)', 89.8),
  ('Nc1ccc(Sc2ccc3c4c2cccc4c(=O)n2c4ccccc4nc32)cc1', 39.6),
  ('Nc1cc(O)cc(O)c1', 89),
  ('N#C/C(=C/c1cc([N+](=O)[O-])ccc1Cl)C(N)=O', 90.4);

====

Test system: 786-0 renal
Test: NCI-60 one-dose screen, 48 h
Conditions: 10 µM
The panel holds about 83,000 compounds, 20% with a hit somewhere; the sample as a whole holds those more often. Active and inactive are the calls of the source. How the source made its calls: active means growth percent below 10; inactive means the rest.
Classes used: active, inactive

INSERT INTO results (compound, assigned_category) VALUES
  ('C[C@]12CC[C@H]3[C@@H](CCC4=CC(=O)CC[C@@]43C)[C@@H]1CC[C@@H]2c1csc(N)n1', 'inactive'),
  ('Fc1ccc(Nc2ccnc(N3CCN(c4ccnc5cc(Cl)ccc45)CC3)n2)cc1', 'inactive'),
  ('CC1(C)CNC(=O)N1', 'inactive'),
  ('Cc1ccc2nc3[nH]c(=O)[nH]c(=O)c3c(N)c2c1', 'inactive'),
  ('CC(C)C[C@H](NC(=O)Cn1ccc2ccccc2c1=O)B(O)O', 'inactive'),
  ('COc1cccc2c1C(=O)c1c(O)c3c(c(O)c1C2=O)C[C@@](O)(C(=O)COC(=O)c1ccccc1)C[C@@H]3OC1CC(N)C(O)C(C)O1 (stereo partly specified)', 'active'),
  ('O=C(OCc1ncc(-c2ccc(C(F)(F)F)cc2)c(NC2CCCCCC2)n1)c1c(F)c(F)c(F)c(F)c1F', 'inactive'),
  ('Cc1ccc(/C=C2\CN(Cc3cn(CCNc4ccnc5cc(Cl)ccc45)nn3)C/C(=C\c3ccc(C)cc3)C2=O)cc1', 'active'),
  ('COc1ccccc1NC1=C(N2CCCCC2)C(=O)c2ccccc2C1=O', 'inactive'),
  ('COc1cc(NS(C)(=O)=O)ccc1Nc1c2ccc(Cl)cc2nc2c(OC)cccc12', 'active'),
  ('O=[N+]([O-])c1ccc2c(c1)Cc1cc(I)ccc1-2', 'inactive'),
  ('COc1ccc2nc(-c3ccccc3)cc(C(C)=O)c2c1', 'inactive'),
  ('COc1cccc(C(=O)N(c2ccc(F)c(F)c2)C(C(=O)NC(C)(C)C)c2cc3c(C)cc(C)cc3nc2Cl)c1 (stereo unspecified)', 'inactive'),
  ('CCN1CCOC1C(C)C (stereo unspecified)', 'inactive'),
  ('C=CCOc1ccc2c(c1)CC=C1[C@@H]2CC[C@]2(C)C(=O)/C(=N/O)C[C@@H]12', 'inactive'),
  ('COc1ccc(-c2cc(=O)n(-c3nc4ccccc4[nH]3)[nH]2)cc1OC', 'inactive'),
  ('COc1cc(/C=C2\C(=O)Nc3cc(C)c(O)cc32)cc(OC)c1OC', 'inactive'),
  ('COc1cc(-c2nc3ccccc3[nH]2)ccc1OCC(=O)N=Nc1c(O)[nH]c2ccccc12', 'inactive'),
  ('FC(F)(F)c1ccc(-c2cnc(Br)nc2NC2CCCCCC2)cc1', 'inactive'),
  ('COc1ccc(C2C=C(c3ccc(Cl)cc3)N=C3SC=CN32)c(Br)c1 (stereo unspecified)', 'inactive'),
  ('Cc1cccc2c1O/C(=C\c1ncc([N+](=O)[O-])n1C)C2=O', 'active'),
  ('O=C1/C(=C/c2ccc(O)cc2)Oc2ccc(Cl)cc21', 'inactive'),
  ('CCC(CCNc1cc(OC)cc2cccnc12)CN1C(=O)c2ccccc2C1=O (stereo unspecified)', 'inactive'),
  ('O=C(O)c1cc(C(F)(F)F)cc(C(F)(F)F)c1', 'inactive'),
  ('N=C(N)c1ccc(-c2ccc(-c3ccccc3)s2)s1', 'active'),
  ('c1ccc(CC(NCCNC(Cc2ccccc2)c2ccccc2)c2ccccc2)cc1 (stereo unspecified)', 'inactive');

====

Test system: MCF7 breast
Assay: NCI-60 one-dose screen, 48 h
Details: 10 µM
Compounds without any hit were thinned out: in the full panel of roughly 83,000, 20% have a hit. Activity calls are given as the source filed them. Rule for the calls: active = growth percent below 10; inactive = the rest.
Classes used: label 1 = active, label 0 = inactive

INSERT INTO measurements (compound, assigned_category) VALUES
  ('COc1ccc(-c2nnc(SC/C(=N\O)c3ccccc3)o2)cc1', 'label 0'),
  ('CNCCCNCCCN1C(=O)c2ccc3c4c(ccc(c24)C1=O)C(=O)N(CCCNCc1ccccc1OC)C3=O', 'label 1'),
  ('COc1cc(C(c2c[nH]c3ccccc23)N2CCCC2)ccc1OCc1ccccc1 (centres undefined)', 'label 0'),
  ('N#Cc1ncc(-c2cc(F)ccc2F)c(NC2CCCCCC2)n1', 'label 0'),
  ('O=C(O)c1cc(C(F)(F)F)cc(C(F)(F)F)c1', 'label 0'),
  ('COc1ccc(-c2nc(SCC(=O)c3ccc(Br)cc3)[nH]c(=O)c2C#N)cc1', 'label 0'),
  ('COc1ccc(C(=O)n2nc(CC(=O)NCc3ccccc3)nc2N)cc1', 'label 0'),
  ('CCCCCCCCCCCCCC[n+]1ccccc1', 'label 1'),
  ('CCc1nn2c(-c3cc(OC)c(OC)c(OC)c3)c(-c3cc(OC)c(OC)c(OC)c3)nc2s1', 'label 0'),
  ('CCN(CC)CCOC(=O)c1ccc(N=Nc2ccc(O)c(OC)c2)cc1', 'label 0'),
  ('COc1ccc(-c2csc(-c3cc(Cl)cc(Cl)c3Cl)n2)cc1', 'label 0'),
  ('CN1CCN(c2nc(-c3cccnc3)nc3sc4c(c23)CCCCCC4)CC1', 'label 0'),
  ('Cc1ccc(-n2c(-c3cc4c([nH]c5ccccc54)c(-c4cccc(O)c4)n3)n[nH]c2=S)cc1', 'label 1'),
  ('O=C(NNC(=O)c1ccncc1)Nc1ccc([N+](=O)[O-])cc1', 'label 0'),
  ('COc1cc(NS(C)(=O)=O)ccc1Nc1c2ccc(Cl)cc2nc2c(OC)cccc12', 'label 0'),
  ('CCc1ccc(Nc2cc(C)nc3nc(C)nn23)cc1', 'label 1'),
  ('CC(=O)CS(C)(=O)=O', 'label 0'),
  ('O=C(/C=C/c1nnc2n(Cc3ccccc3)c(=O)c3c4c(sc3n12)CCCC4)c1ccccc1', 'label 0'),
  ('COc1ccc(C2C=C(c3ccc(Cl)c(Cl)c3)N=C3SC(C)=CN32)cc1 (centres undefined)', 'label 0'),
  ('COc1ccc(-c2nc3sc(-c4ccccc4)c(-c4ccccc4)n3c2/C=C/c2ccc(F)cc2)cc1', 'label 0'),
  ('CN1/C(=C\C(I)C(I)C2=[N+](C)c3ccccc3C2(C)C)C(C)(C)c2ccccc21 (centres undefined)', 'label 1'),
  ('Cc1ccc(-n2nnc3c(sc4ccccc43)c2=O)cc1', 'label 0'),
  ('COc1ccc(/C(=C/c2cc(OC)c(OC)cc2[N+](=O)[O-])C(=O)O)cc1', 'label 0'),
  ('C[C@@H]1N=C(c2ccc(Br)cc2)Nc2nc3ccccn3c2C1=O', 'label 0'),
  ('COc1ccc2c(=O)cc(C(Cl)(Cl)Cl)oc2c1', 'label 1'),
  ('COc1cc(Cn2c(-c3ccccc3)c(Cl)c3c2-c2oncc2CC3)cc(OC)c1', 'label 0'),
  ('COc1ccc(Cn2cc3c(c2-c2ccccc2)CC(C)(C)c2cnoc2-3)cc1', 'label 0'),
  ('COc1cccc(-c2nnc(COc3ccc(-c4nc5ccccc5[nH]4)cc3OC)o2)c1', 'label 0'),
  ('CCN(CC)CC(O)Cc1ccc(OC)cc1 (centres undefined)', 'label 0'),
  ('CCOC(=O)c1cc(-c2ccccc2)nc(N)n1', 'label 0'),
  ('Cc1ccc2c3c(cccc13)-c1ccccc1C2=O', 'label 0'),
  ('Nc1ccc(C2=CC(c3ccc(Cl)cc3)N3C=CSC3=N2)cc1 (centres undefined)', 'label 1'),
  ('COc1cc(-c2c(C#N)c(N)n3c(nc4ccccc43)c2C#N)cc(Br)c1OC', 'label 0'),
  ('O=C(OCc1ncc(-c2ccc(C(F)(F)F)cc2)c(NC2CCCCCC2)n1)c1c(F)c(F)c(F)c(F)c1F', 'label 0'),
  ('O=C(Nc1cccc(F)c1)Nc1cccc(Cl)c1', 'label 0'),
  ('C=CCNC(=S)NN', 'label 1'),
  ('CC(=O)OC1Oc2ccccc2-c2oc(=O)c(-c3ccc(F)cc3)cc21 (centres undefined)', 'label 0'),
  ('N=C(N)c1ccc(-c2ccc(-c3ccccc3)s2)cc1F', 'label 1'),
  ('CC(=O)[C@H]1CC[C@H]2[C@@H]3CC[C@@H]4CC=C(C=O)C[C@]4(C)[C@H]3CC[C@]12C', 'label 0');
